Please provide measured protein stability index for the entries that follow.
B1: MFF (parent)
chain: DDLTVVDAASLRRQIIKLNRRLQL

Variants of: B1
assay.summary: protein stability index of a GFP-peptide fusion (GPS, HEK-293T) (PSI 1-6); higher = more stable;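 note: lentivirally expressed fusions sorted by FACS into six bins by GFP to DsRed ratio, PSI derived from sequencing read proportions per bin multiplied by bin number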
condition.set: c terminus: a fixed tail appended

For the variant V6S , give its measured protein stability index value.
1.64

For the variant L24F , give its measured protein stability index value.
1.8

For the variant A9C , give its measured protein stability index value.
2.03

For the variant R20P , give its measured protein stability index value.
2.79

For the variant Q23C , give its measured protein stability index value.
1.91

For the variant A8H , give its measured protein stability index value.
1.95

For the variant L18H , give its measured protein stability index value.
3

For the variant D2E , give its measured protein stability index value.
1.72

For the variant I16Q , give its measured protein stability index value.
1.98

For the variant L22W , give its measured protein stability index value.
2.4

For the variant D7G , give its measured protein stability index value.
2.71

For the variant R13G , give its measured protein stability index value.
2.14

For the variant A9L , give its measured protein stability index value.
2.08

For the variant I15K , give its measured protein stability index value.
3.5

For the variant N19F , give its measured protein stability index value.
2.16

For the variant L3N , give its measured protein stability index value.
2.09

For the variant A8M , give its measured protein stability index value.
3.09

For the variant L18R , give its measured protein stability index value.
3.73

For the variant R21K , give its measured protein stability index value.
1.88

For the variant L22C , give its measured protein stability index value.
1.91

For the variant R13V , give its measured protein stability index value.
2.55

For the variant I15T , give its measured protein stability index value.
2.94

For the variant S10V , give its measured protein stability index value.
1.64

For the variant L11E , give its measured protein stability index value.
3.7

For the variant D1W , give its measured protein stability index value.
1.88

For the variant Q14R , give its measured protein stability index value.
2.58

For the variant D2C , give its measured protein stability index value.
2.73

For the variant R21E , give its measured protein stability index value.
1.46

For the variant L3Y , give its measured protein stability index value.
1.96

For the variant R12D , give its measured protein stability index value.
2.5

For the variant T4N , give its measured protein stability index value.
2.3

For the variant K17N , give its measured protein stability index value.
2.2

For the variant L11N , give its measured protein stability index value.
2.59

For the variant V6H , give its measured protein stability index value.
2.71

For the variant R12L , give its measured protein stability index value.
1.67

For the variant V5P , give its measured protein stability index value.
2.42

For the variant I16F , give its measured protein stability index value.
3.4
